testedSystem: cynomolgus LIV-1 (cynomolgus, UniProt A0A2K5WH46 30-741)
Sequence (A0A2K5WH46 entry or part of it): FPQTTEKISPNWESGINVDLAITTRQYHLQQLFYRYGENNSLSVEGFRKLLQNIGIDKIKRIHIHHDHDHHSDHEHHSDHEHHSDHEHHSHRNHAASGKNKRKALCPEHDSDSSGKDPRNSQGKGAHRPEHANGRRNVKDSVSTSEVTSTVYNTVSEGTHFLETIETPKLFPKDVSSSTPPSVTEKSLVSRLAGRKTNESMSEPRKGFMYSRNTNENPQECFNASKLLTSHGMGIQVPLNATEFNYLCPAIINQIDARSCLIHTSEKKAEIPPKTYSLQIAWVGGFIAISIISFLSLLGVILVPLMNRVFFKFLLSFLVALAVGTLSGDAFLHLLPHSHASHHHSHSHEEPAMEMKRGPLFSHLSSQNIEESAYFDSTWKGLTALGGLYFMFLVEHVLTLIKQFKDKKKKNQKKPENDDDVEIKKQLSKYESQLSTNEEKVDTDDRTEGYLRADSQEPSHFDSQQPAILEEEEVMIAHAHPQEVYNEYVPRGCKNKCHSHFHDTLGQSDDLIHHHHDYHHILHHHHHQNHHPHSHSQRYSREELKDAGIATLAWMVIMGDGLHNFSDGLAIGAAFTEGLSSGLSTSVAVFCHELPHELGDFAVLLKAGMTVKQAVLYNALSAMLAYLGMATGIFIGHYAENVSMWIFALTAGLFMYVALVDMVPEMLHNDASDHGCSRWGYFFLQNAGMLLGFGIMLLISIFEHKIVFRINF
protocolDescription: FACS, HEK293/Cyno_LIV-1 cells
Assign TRUE whenever Top (MFI) does not fall below 8000 MFI; assign FALSE whenever it does.

Data request: Item 124H4D11.p2.z7 (antibody, V domains shown) VH: QVPLVQSGAEVVKPGASVKVSCKASGFNIKDYYMHWVRQAPGQGLEWIGWIDPENDDTEYDPKFQGRATMTADTSTSTAYMELSSLRSEDTAVYYCNARYYAFDYWGQGTTVTVSS VL: DVLMTQSPSSLSASVGDRVTITCRSSQSIVHSNANTYLEWYLQKPGKSPKLLIYKVSNRFSGVPDRFSGSGSGTEFTLTISSVQPEDFAVYYCFQGSQVPPTFGQGTRLEIK with Top (MFI) of 8000 MFI or above?
Data returned: FALSE

Data request: Check 5D6B10.Z6 (antibody, V domains shown) VH: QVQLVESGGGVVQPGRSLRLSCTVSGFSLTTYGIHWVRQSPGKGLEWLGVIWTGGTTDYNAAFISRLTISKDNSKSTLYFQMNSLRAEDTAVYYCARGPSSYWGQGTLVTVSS VL: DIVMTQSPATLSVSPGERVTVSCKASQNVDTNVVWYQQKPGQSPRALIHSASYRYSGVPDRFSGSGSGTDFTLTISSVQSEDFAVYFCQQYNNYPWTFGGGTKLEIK too.
Data returned: TRUE

Data request: Please do the same for 5D6B10 (antibody, V domains shown, Tested as chimeric antibody) VH: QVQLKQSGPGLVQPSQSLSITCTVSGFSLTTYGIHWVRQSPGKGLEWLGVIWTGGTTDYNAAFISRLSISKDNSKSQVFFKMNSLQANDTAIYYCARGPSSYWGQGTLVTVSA VL: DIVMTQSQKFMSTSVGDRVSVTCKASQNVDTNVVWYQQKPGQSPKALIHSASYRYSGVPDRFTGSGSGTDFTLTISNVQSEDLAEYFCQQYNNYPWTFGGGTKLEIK as well.
Data returned: TRUE

Data request: Next: 124H4D11.p2.z4 (antibody, V domains shown) VH: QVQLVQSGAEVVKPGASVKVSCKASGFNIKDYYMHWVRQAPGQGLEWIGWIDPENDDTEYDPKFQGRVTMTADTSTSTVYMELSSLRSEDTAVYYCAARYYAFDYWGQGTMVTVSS VL: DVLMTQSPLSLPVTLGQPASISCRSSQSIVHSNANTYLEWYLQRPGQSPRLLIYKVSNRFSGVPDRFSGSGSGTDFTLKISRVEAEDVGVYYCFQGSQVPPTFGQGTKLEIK
Data returned: TRUE
